Experiment: Study No. 15-3 toxicokinetics of fospropofol and propofol in plasma
Type: in vivo, Sprague-Dawley rats
Settings: male, Sprague-Dawley, rat, plasma, po, 50 mg/kg, oral gavage fospropofol disodium; Male; 50 mg/kg; Day 14; read-out: Fospropofol Tmax
result type: Tmax (min)
Please give a number only; it is taken to be in min.

INPUT: Requested field: Tmax. Item: CC(C)c1cccc(C(C)C)c1OCOP(=O)(O)O
OUTPUT: 4.98

---

Test: Study No. 15-3 toxicokinetics of fospropofol and propofol in plasma
Type: in vivo, Sprague-Dawley rats
Settings: male, Sprague-Dawley, rat, plasma, po, 50 mg/kg, oral gavage fospropofol disodium; Male; 50 mg/kg; Day 1; read-out: Fospropofol AUC0-6 hr
result type: AUC(0-t) (ng·h/mL)
Express your answer in ng·h/mL, writing the number without its unit.

INPUT: Look at this compound and give its reported AUC(0-t). CC(C)c1cccc(C(C)C)c1OCOP(=O)(O)O
OUTPUT: 97.1

---

Test: Study No. 15-4 toxicokinetics of fospropofol and propofol in plasma
Assay type: in vivo, Beagle dogs
Conditions: female, beagle, dog, plasma, po, 160 mg/kg, oral gavage fospropofol disodium; Female; 160 mg/kg; Day 1; read-out: Fospropofol Tmax
result type: Tmax

INPUT: Reported Tmax for CC(C)c1cccc(C(C)C)c1OCOP(=O)(O)O : what is it?
OUTPUT: 15 to 60 min

---

Experiment: Study A17: PK of fospropofol and propofol after single oral dose of fospropofol disodium 800 mg in subjects with migraine
Settings: female, human, plasma, po, 800 mg, Fospropofol Cmax, Mean, N = 12 migraine subjects; Fospropofol Disodium 800 mg oral
Description: The study is planned to complete approximately 85 subjects. • Enrolled subjects will be asked to come to the study site for treatment when they experience a qualifying migraine headache. Dosing must occur within 4 hours after onset of the migraine symptoms. […] Able to comprehend the nature of the study, capable of giving written informed consent, and able to communicate effectively with clinic staff (as assessed by the investigator) • 8. […]
result type: Cmax (ng/mL)
Express the result in ng/mL but write the number alone.

INPUT: Fill in: Cmax of CC(C)c1cccc(C(C)C)c1OCOP(=O)(O)O [fospropofol] is ___
OUTPUT: 5790

---

Assay: Study No. 15-4 toxicokinetics of fospropofol and propofol in plasma
Format: in vivo, Beagle dogs
Conditions: female, Beagle, dog, plasma, po; females
result type: half-life

INPUT: Reported half-life, molecule CC(C)c1cccc(C(C)C)c1O : ____
OUTPUT: 30 to 78 min

---

Assay: Study A16 Part 1: PK of single ascending oral doses of fospropofol disodium (200 to 2000 mg), fasted healthy adults
Assay type: in vivo, human
Conditions: both sexes, human, plasma, po, 800 mg, Propofol Tmax, oral fospropofol disodium 800 mg; median
result type: Tmax (min)
Please respond with the number in min and leave the unit unwritten.

INPUT: What value of measured Tmax is listed for CC(C)c1cccc(C(C)C)c1O ?
OUTPUT: 37.2

---

Assay: Study A16 Part 1: PK of single ascending oral doses of fospropofol disodium (200 to 2000 mg), fasted healthy adults
Format: in vivo, human
Details: both sexes, human, plasma; oral fospropofol disodium 400 mg; mean
result type: AUC(0-t) (ng·h/mL)
The reply should contain only the number, in ng·h/mL.

INPUT: Which value of AUC(0-t) has been reported for CC(C)c1cccc(C(C)C)c1O in the records?
OUTPUT: 276

---

Test: Study No. 15-3 toxicokinetics of fospropofol and propofol in plasma
Assay type: in vivo, Sprague-Dawley rats
Conditions: female, Sprague-Dawley, rat, plasma, po, 250 mg/kg, oral gavage fospropofol disodium; Female; 250 mg/kg; Day 14; read-out: Fospropofol AUC0-6 hr
result type: AUC(0-t) (ng·h/mL)
Please reply with the bare figure in ng·h/mL and do not write the unit itself.

INPUT: Please give the measured AUC(0-t) for this compound: CC(C)c1cccc(C(C)C)c1OCOP(=O)(O)O [fospropofol]
OUTPUT: 3810

---

Assay: Study A16 Part 1: PK of single ascending oral doses of fospropofol disodium (200 to 2000 mg), fasted healthy adults
Assay type: in vivo, human
Conditions: both sexes, human, plasma, po, 1200 mg, oral fospropofol disodium 1200 mg; mean; read-out: Fospropofol Cmax
result type: Cmax (ng/mL)
Lab book: enter the figure in ng/mL, no units written.

INPUT: Fill blank: measured Cmax of the molecule CC(C)c1cccc(C(C)C)c1OCOP(=O)(O)O [fospropofol] is ____.
OUTPUT: 7110

---

Test: Study No. 15-3 toxicokinetics of fospropofol and propofol in plasma
Assay type: in vivo, Sprague-Dawley rats
Settings: male, Sprague-Dawley, rat, plasma, po, 250 mg/kg, oral gavage fospropofol disodium; Male; 250 mg/kg; Day 14; read-out: Fospropofol Cmax
result type: Cmax (ng/mL)
# output: bare number, implied unit ng/mL

INPUT: Suppose we examine the compound CC(C)c1cccc(C(C)C)c1OCOP(=O)(O)O [fospropofol] ; what Cmax value has been reported?
OUTPUT: 5020

---

Test: Study A16 Part 1: PK of single ascending oral doses of fospropofol disodium (200 to 2000 mg), fasted healthy adults
Assay type: in vivo, human
Details: both sexes, human, plasma, po, 800 mg, Propofol AUC0-∞, oral fospropofol disodium 800 mg; mean
result type: AUC(0-inf)

INPUT: # input compound: CC(C)c1cccc(C(C)C)c1O [propofol, 2,6-diisopropylphenol] ; wanted: its AUC(0-inf)
OUTPUT: 577 ng·h/mL

---

Assay: Study No. 15-3 toxicokinetics of fospropofol and propofol in plasma
Type: in vivo, Sprague-Dawley rats
Conditions: female, Sprague-Dawley, rat, plasma, po, 50 mg/kg, oral gavage fospropofol disodium; Female; 50 mg/kg; Day 14; read-out: Fospropofol Cmax
result type: Cmax
State the value, then name its unit.

INPUT: Can you look up the measured Cmax of CC(C)c1cccc(C(C)C)c1OCOP(=O)(O)O for me?
OUTPUT: 341 ng/mL

---

Assay: Study No. 15-4 toxicokinetics of fospropofol and propofol in plasma
Type: in vivo, Beagle dogs
Conditions: male, beagle, dog, plasma, po, 50 mg/kg, oral gavage fospropofol disodium; Male; 50 mg/kg; Day 1
result type: Cmax (ng/mL)
Write down the numeric answer in ng/mL and omit the unit.

INPUT: Recorded Cmax for CC(C)c1cccc(C(C)C)c1OCOP(=O)(O)O , please?
OUTPUT: 5130

---

Assay: Study No. 15-4 toxicokinetics of fospropofol and propofol in plasma
Assay type: in vivo, Beagle dogs
Conditions: Beagle, dog, plasma, po, Propofol Tmax, most groups
result type: Tmax

INPUT: Reported Tmax, molecule CC(C)c1cccc(C(C)C)c1O [propofol, 2,6-diisopropylphenol] : ____
OUTPUT: 5 to 60 min

---

Assay: Study A16 Part 1: PK of single ascending oral doses of fospropofol disodium (200 to 2000 mg), fasted healthy adults
Format: in vivo, human
Conditions: female, human, plasma, oral, 800 mg, females only (800 mg cohort); individual subjects (Subject No. in c0); read-out: Fospropofol Auc4
result type: AUC (ng·h/mL)
Give the value in ng·h/mL but do not write ng·h/mL after it.

INPUT: Given CC(C)c1cccc(C(C)C)c1OCOP(=O)(O)O [fospropofol] , state its recorded AUC.
OUTPUT: 5160

---

Experiment: Study A16 Part 1: PK of single ascending oral doses of fospropofol disodium (200 to 2000 mg), fasted healthy adults
Format: in vivo, human
Conditions: female, human, plasma, oral, 800 mg, females only (800 mg cohort); individual subjects (Subject No. in c0); read-out: Fospropofol Auc2
result type: AUC (ng·h/mL)
Write the number in ng·h/mL without appending the unit.

INPUT: Suppose we examine the molecule CC(C)c1cccc(C(C)C)c1OCOP(=O)(O)O ; what AUC value has been reported?
OUTPUT: 5000

---

Assay: Study A16 Part 1: PK of single ascending oral doses of fospropofol disodium (200 to 2000 mg), fasted healthy adults
Assay type: in vivo, human
Details: both sexes, human, plasma, po, 400 mg, oral fospropofol disodium 400 mg; mean; read-out: Fospropofol Cmax
result type: Cmax (ng/mL)
Report as a plain number; the unit ng/mL is understood.

INPUT: Request the reported Cmax associated with CC(C)c1cccc(C(C)C)c1OCOP(=O)(O)O
OUTPUT: 4460

---

Test: Study A16 Part 2: PK of a single dose of 1200 mg fospropofol disodium following a high-fat meal
Format: in vivo, human
Conditions: both sexes, human, plasma; oral fospropofol disodium 1200 mg; Fed (Cohort 8), n= 12; mean; read-out: Fospropofol AUC0-T
Experimental: Part 2 of Study A16 was a double-blind, placebo-controlled, single-close pilot study to investigate the PK, safety, and tolerability of 1200 mg of fospropofol disodium administered to healthy adult men and women following a high-fat meal. Subjects were healthy adults (age 18-55 years inclusive, BMI 18-29.9 kg/m^2). […]
result type: AUC(0-t) (ng·h/mL)
The answer is to be given in ng·h/mL; state only the numeric part.

INPUT: What value of AUC(0-t) has been recorded for this entry: CC(C)c1cccc(C(C)C)c1OCOP(=O)(O)O [fospropofol]
OUTPUT: 993
